B1: LOXL2 (parent)
chain: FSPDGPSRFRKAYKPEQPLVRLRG

- Variants of: B1
- assay-method-text: protein stability index of a GFP-peptide fusion (GPS, HEK-293T) (PSI 1-6); higher = more stable;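 also: lentivirally expressed fusions sorted by FACS into six bins by GFP to DsRed ratio, PSI derived from sequencing read proportions per bin multiplied by bin number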
- run-conditions: c terminus: a fixed tail appended
Quick list: protein stability index per entry.
Give the figure by itself; no unit, no explanation.

Example variants with recorded protein stability index:
| sequence-change | protein stability index |
| --- | --- |
| S2K | 3.23 |
| E16A | 1.96 |
| P15L | 3.53 |
| F9Y | 3.04 |
| D4V | 2.38 |
| G24A | 2.71 |
| A12V | 2.3 |
| R21E | 1.99 |

Q. So what does the record say about protein stability index for `G24T` ?
A. 1.38

Q. Then `P15I` ?
A. 2.07

Q. Then `R10D` ?
A. 2.2

Hello, the source for this data is the supplement of paper PMC10567573, in case you need it.
